# target.under.test: Myc proto-oncogene protein (Homo sapiens)
# method.notes: ATG_Myc_CIS: Attagene CIS-FACTORIAL HepG2 Assay for human Myelocytomatosis (Myc) Proto-Oncogene Transcription Factor (AID 2282990)
# condition.details: HepG2, Attagene cis-reporter transcription factor activity; actives raise or lower the signal
Active and inactive are the calls of the source. Rule for the calls: active = hit-call score of the fitted dose curve at least 0.9, where 1 is the maximum; inactive = score below 0.9.
Choose the fitting class; nothing outside YES for active, NO for inactive is accepted.

Ask | How did this test come out for CN(C1CCCCC1)C1CCCCC1 ?
Reply | NO

Ask | Record request — test call for Cc1cc(C(F)(C(F)(F)F)C(F)(F)F)ccc1NC(=O)c1cccc(I)c1C(=O)NC(C)(C)CS(C)(=O)=O
Reply | NO

Ask | Look up the recorded call for N#CCC#N in this test.
Reply | NO

Ask | Assay result, entry O=[N+]([O-])c1cccc2ccccc12 — outcome?
Reply | NO

Ask | Query: recorded result category for Cc1cc(Cl)ccc1N in this test
Reply | NO

Ask | Per the records of this test, what outcome belongs to Nc1ccc(-c2ccccc2)cc1 ?
Reply | NO
